molecular target: human melanocortin-1 receptor hMCR-1 expressed by the human melanoma cell line HBL (human, UniProt Q01726 1-317); test: cell-based or functional assay
Sequence (Q01726 whole entry): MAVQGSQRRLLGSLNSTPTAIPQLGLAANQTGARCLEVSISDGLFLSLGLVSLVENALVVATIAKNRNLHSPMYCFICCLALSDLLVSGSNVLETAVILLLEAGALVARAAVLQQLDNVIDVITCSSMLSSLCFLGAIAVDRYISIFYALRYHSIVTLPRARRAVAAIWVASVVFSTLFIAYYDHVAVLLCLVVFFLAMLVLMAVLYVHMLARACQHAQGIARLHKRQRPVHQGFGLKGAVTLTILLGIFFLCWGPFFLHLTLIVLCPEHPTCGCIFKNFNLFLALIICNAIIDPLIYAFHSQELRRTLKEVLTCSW
Bridge positions count the residues as written; N and C are the ends. Square brackets hold non-standard residues; d marks the D form. dPhe(2-Cl) = N[C@H](Cc1ccccc1Cl)C(=O)O; Nle = CCCC[C@H](N)C(=O)O; Orn = NCCC[C@H](N)C(=O)O; Dab = NCC[C@H](N)C(=O)O
endpoint: MC-1 Emax (average; cAMP HBL) (%)

binder: Ac-[Nle]E[Orn][dPhe(2-Cl)]R[Dab]-NH2 (lactam 2-6; SMILES CCCC[C@H](NC(C)=O)C(=O)N[C@H]1CCC(=O)NCC[C@@H](C(N)=O)NC(=O)[C@H](CCCNC(=N)N)NC(=O)[C@@H](Cc2ccccc2Cl)NC(=O)[C@H](CCCN)NC1=O) [Ac-Nle-cyclo(Glu-Orn-D-Phe(2-Cl)-Arg-Dab)-NH2]
measured number: 88
//
binder: Ac-[Nle]EH[dF]R[Dab]-NH2 (lactam 2-6; SMILES CCCC[C@H](NC(C)=O)C(=O)N[C@H]1CCC(=O)NCC[C@@H](C(N)=O)NC(=O)[C@H](CCCNC(=N)N)NC(=O)[C@@H](Cc2ccccc2)NC(=O)[C@H](Cc2c[nH]cn2)NC1=O) [Ac-Nle-cyclo(Glu-His-D-Phe-Arg-Dab)-NH2 (SEQ ID NO: 47)]
measured number: 85
//
binder: Ac-[Nle]E[Dab][dF]R[Dab]W-NH2 (lactam 2-6) [Ac-Nle-cyclo(Glu-Dab-D-Phe-Arg-Dab)-Trp-NH2 (SEQ ID NO: 57)]
measured number: 108
//
binder: Ac-[Nle]E[Orn][dPhe(4-OMe)]R[Dab]-NH2 (lactam 2-6) [Ac-Nle-cyclo(Glu-Orn-D-Phe(4-OMe)-Arg-Dab)-NH2]
measured number: 99
